The reader will find IC50 measurements below, all made with MMP-3 (Homo sapiens, UniProt P08254).
Sequence (P08254 100-477): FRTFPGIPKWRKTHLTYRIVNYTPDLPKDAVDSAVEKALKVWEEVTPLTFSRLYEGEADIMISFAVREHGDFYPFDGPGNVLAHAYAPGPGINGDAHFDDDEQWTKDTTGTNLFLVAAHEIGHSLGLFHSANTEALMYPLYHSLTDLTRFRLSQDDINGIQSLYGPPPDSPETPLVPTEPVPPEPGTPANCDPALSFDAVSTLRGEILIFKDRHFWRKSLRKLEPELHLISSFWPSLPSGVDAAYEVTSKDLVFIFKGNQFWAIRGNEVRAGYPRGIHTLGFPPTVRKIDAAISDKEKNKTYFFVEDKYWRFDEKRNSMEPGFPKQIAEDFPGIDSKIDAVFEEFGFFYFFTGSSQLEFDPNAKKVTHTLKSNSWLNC
READOUT_TYPE: IC50 (nM)

MOLECULE: O=C(c1ccc(-c2ccc(Cl)cc2)cc1)C1CCC(Cn2nnc3ccccc3c2=O)C1C(=O)O (stereo not drawn)
VALUE_REPORTED: 1.7
--
MOLECULE: CC1=NCC(=O)N(CCC(CC(=O)c2ccc(-c3ccc(Cl)cc3)cc2)C(=O)O)c2ccccc21 (stereo not drawn)
VALUE_REPORTED: 140
--
MOLECULE: O=C(CC(CCn1nnc2ccccc2c1=O)C(=O)O)c1ccc(-c2ccc(Cl)cc2)cc1 (stereo not drawn)
VALUE_REPORTED: 47

====

The reader will find IC50 measurements below, all made with MMP-2 (Homo sapiens).
Sequence (P08253 110-660): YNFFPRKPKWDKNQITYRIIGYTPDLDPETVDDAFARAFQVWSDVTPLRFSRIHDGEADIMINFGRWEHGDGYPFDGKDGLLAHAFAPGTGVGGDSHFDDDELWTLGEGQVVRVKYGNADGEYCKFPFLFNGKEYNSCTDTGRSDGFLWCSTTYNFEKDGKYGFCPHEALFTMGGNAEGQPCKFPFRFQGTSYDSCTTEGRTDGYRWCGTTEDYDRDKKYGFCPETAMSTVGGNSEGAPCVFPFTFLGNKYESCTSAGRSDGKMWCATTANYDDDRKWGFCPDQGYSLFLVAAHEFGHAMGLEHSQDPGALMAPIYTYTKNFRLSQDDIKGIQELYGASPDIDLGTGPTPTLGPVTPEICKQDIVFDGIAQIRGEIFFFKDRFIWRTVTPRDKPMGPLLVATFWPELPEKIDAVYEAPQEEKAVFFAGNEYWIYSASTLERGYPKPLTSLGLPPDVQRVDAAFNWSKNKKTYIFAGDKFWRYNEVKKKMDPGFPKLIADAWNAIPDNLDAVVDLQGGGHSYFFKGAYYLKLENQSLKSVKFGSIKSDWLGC

COMPOUND: CC1=NCC(=O)N(CCC(CC(=O)c2ccc(-c3ccc(Cl)cc3)cc2)C(=O)O)c2ccccc21 (stereo not drawn)
IC50 (nM): 24

COMPOUND: O=C(c1ccc(-c2ccc(Cl)cc2)cc1)C1CCC(Cn2nnc3ccccc3c2=O)C1C(=O)O (stereo not drawn)
IC50 (nM): 0.39

COMPOUND: O=C(CC(CCn1nnc2ccccc2c1=O)C(=O)O)c1ccc(-c2ccc(Cl)cc2)cc1 (stereo not drawn)
IC50 (nM): 2.4

====

MEASURED_ON: UniProt:P14780
Sequence (P14780 107-707 limits assumed): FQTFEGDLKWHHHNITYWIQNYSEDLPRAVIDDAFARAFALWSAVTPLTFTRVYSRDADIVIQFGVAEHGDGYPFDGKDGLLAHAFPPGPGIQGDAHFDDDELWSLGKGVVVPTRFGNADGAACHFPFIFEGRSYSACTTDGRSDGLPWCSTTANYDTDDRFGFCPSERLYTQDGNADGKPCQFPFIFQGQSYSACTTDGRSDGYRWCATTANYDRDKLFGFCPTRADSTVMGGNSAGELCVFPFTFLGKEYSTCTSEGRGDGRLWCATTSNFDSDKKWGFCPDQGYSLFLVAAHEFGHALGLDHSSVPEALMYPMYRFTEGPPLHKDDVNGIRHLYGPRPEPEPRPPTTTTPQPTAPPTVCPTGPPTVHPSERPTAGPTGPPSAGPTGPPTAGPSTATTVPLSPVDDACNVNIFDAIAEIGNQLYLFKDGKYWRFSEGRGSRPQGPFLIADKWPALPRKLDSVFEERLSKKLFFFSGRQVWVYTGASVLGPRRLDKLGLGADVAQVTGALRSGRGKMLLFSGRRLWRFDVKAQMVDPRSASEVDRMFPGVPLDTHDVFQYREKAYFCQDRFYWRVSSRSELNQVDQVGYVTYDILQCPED
pIC50: −log10 of the molar value.
READOUT_TYPE: pIC50

COMPOUND: CC1=NCC(=O)N(CCC(CC(=O)c2ccc(-c3ccc(Cl)cc3)cc2)C(=O)O)c2ccccc21 (stereo not drawn)
VALUE_REPORTED: 6.92
//
COMPOUND: O=C(c1ccc(-c2ccc(Cl)cc2)cc1)C1CCC(Cn2nnc3ccccc3c2=O)C1C(=O)O (stereo not drawn)
VALUE_REPORTED: 9.47
//
COMPOUND: O=C(CC(CCn1nnc2ccccc2c1=O)C(=O)O)c1ccc(-c2ccc(Cl)cc2)cc1 (stereo not drawn)
VALUE_REPORTED: 8.33
